test system: A375 multi-cell spheroids with HUVEC/MSC, viability; experiment: Anticancer human tumor A375 cell line growth inhibition [GQUAD]; conditions: second compound 3.16 µM; first compound 0.316 µM; hits give low values;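 note: spheroids exposed to compounds for seven days before readout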

[
  {
    "compound": "Cc1cccc(N(C)C(=O)C2C(O)CCN2c2nc(C)cc(C(F)(F)F)c2C#N)c1 (stereo not drawn) + Cc1[nH]c2ccc(F)cc2c1-c1nc2c3cccnc3c3ncccc3c2[nH]1",
    "unit_of_measure": "%",
    "viability, T/C": 94.7
  },
  {
    "compound": "CC(C)(O)C1CCC(Nc2ccc3ncc(-c4cccc(C(F)(F)F)c4)n3n2)CC1 (stereo not drawn) + Cc1[nH]c2ccc(F)cc2c1-c1nc2c3cccnc3c3ncccc3c2[nH]1",
    "unit_of_measure": "%",
    "viability, T/C": 39
  },
  {
    "compound": "CC1COCCN1c1cc(C2(S(C)(=N)=O)CC2)nc(-c2ccnc3[nH]ccc23)n1 (stereo not drawn) + Cc1[nH]c2ccc(F)cc2c1-c1nc2c3cccnc3c3ncccc3c2[nH]1",
    "unit_of_measure": "%",
    "viability, T/C": 83.3
  }
]

====

test system: A375 multi-cell spheroids with HUVEC/MSC, viability; experiment: Anticancer human tumor A375 cell line growth inhibition [GQUAD]; conditions: second compound 10 µM; first compound 0.1 µM; hits give low values;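 note: spheroids exposed to compounds for seven days before readout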
Label satisfied when viability, T/C < 30%; otherwise not satisfied.

[
  {
    "compound": "CCCS(=O)(=O)Nc1ccc(F)c(C(=O)c2c[nH]c3ncc(-c4ccc(Cl)cc4)cc23)c1F + Cc1cnc(CNC(=O)c2c(=O)c3ccc(N4CCCN(C)CC4)nc3n3c2sc2ccccc23)cn1",
    "assigned_label": "satisfied"
  },
  {
    "compound": "Cc1cccc(N(C)C(=O)C2C(O)CCN2c2nc(C)cc(C(F)(F)F)c2C#N)c1 (stereo unspecified) + CN(C)c1ccc(Nc2c3ccc(NC(=O)CCN4CCCC4)cc3nc3cc(NC(=O)CCN4CCCC4)ccc23)cc1",
    "assigned_label": "not satisfied"
  },
  {
    "compound": "C#Cc1c(F)ccc2cc(O)cc(-c3ncc4c(N5CC6CCC(C5)N6)nc(OCC56CCCN5CC(F)C6)nc4c3F)c12 (stereo unspecified) + Cc1cnc(CNC(=O)c2c(=O)c3ccc(N4CCCN(C)CC4)nc3n3c2sc2ccccc23)cn1",
    "assigned_label": "satisfied"
  },
  {
    "compound": "CC(C)(O)C1CCC(Nc2ccc3ncc(-c4cccc(C(F)(F)F)c4)n3n2)CC1 (stereo unspecified) + Cc1cnc(CNC(=O)c2c(=O)c3ccc(N4CCCN(C)CC4)nc3n3c2sc2ccccc23)cn1",
    "assigned_label": "satisfied"
  },
  {
    "compound": "C=CC(=O)N1CCN(c2nc(=O)n(-c3c(C)ccnc3C(C)C)c3nc(-c4c(O)cccc4F)c(F)cc23)C(C)C1 (stereo unspecified) + CN(C)c1ccc(Nc2c3ccc(NC(=O)CCN4CCCC4)cc3nc3cc(NC(=O)CCN4CCCC4)ccc23)cc1",
    "assigned_label": "not satisfied"
  },
  {
    "compound": "CC1COCCN1c1cc(C2(O)CC3CCC(C2)O3)c2cnn(-c3ccn[nH]3)c2n1 (stereo unspecified) + Cc1cnc(CNC(=O)c2c(=O)c3ccc(N4CCCN(C)CC4)nc3n3c2sc2ccccc23)cn1",
    "assigned_label": "satisfied"
  },
  {
    "compound": "CC1COCCN1c1cc(C2(O)CC3CCC(C2)O3)c2cnn(-c3ccn[nH]3)c2n1 (stereo unspecified) + CN(C)c1ccc(Nc2c3ccc(NC(=O)CCN4CCCC4)cc3nc3cc(NC(=O)CCN4CCCC4)ccc23)cc1",
    "assigned_label": "not satisfied"
  },
  {
    "compound": "CC1COCCN1c1cc(C2(S(C)(=N)=O)CC2)nc(-c2ccnc3[nH]ccc23)n1 (stereo unspecified) + Cc1[nH]c2ccc(F)cc2c1-c1nc2c3cccnc3c3ncccc3c2[nH]1",
    "assigned_label": "not satisfied"
  },
  {
    "compound": "Cc1cccc(N(C)C(=O)C2C(O)CCN2c2nc(C)cc(C(F)(F)F)c2C#N)c1 (stereo unspecified) + Cc1[nH]c2ccc(F)cc2c1-c1nc2c3cccnc3c3ncccc3c2[nH]1",
    "assigned_label": "not satisfied"
  },
  {
    "compound": "CC1COCCN1c1cc(C2(O)CC3CCC(C2)O3)c2cnn(-c3ccn[nH]3)c2n1 (stereo unspecified) + Cc1[nH]c2ccc(F)cc2c1-c1nc2c3cccnc3c3ncccc3c2[nH]1",
    "assigned_label": "satisfied"
  }
]

Reference source: PubChem BioAssay AID2060485
